Would you mind telling me the reported GI50 of each entry?
Tested on: MDA-N
Assay: NCI tumour cell line growth inhibition, 48 h
Calls of active or inactive are those of the source. Cut-off read from the data, not from the text of the source: active = GI50 up to about 1.1 µM and inactive = higher.

These recorded examples may help you get a feel for the data.
1. CN(C)CN1C(=O)/C(=N\n2c(S)nnc2-c2ccncc2)c2ccccc21    16.7 µM (inactive)
2. COC(=O)C1OC2(CCCC3CC32)O[C@H]1C(=O)OC (stereo not given in full)    > 100 µM (inactive)

Please supply GI50 for each of the following items, keeping them in order.
1. OC(C/C=N/N=C/CC(O)(C(F)(F)Cl)C(F)(F)Cl)(C(F)(F)Cl)C(F)(F)Cl
2. COc1ccc(Nc2nc3ccccc3nc2C(=O)O)cc1OC
3. C=C(C)C(=O)O[C@H]1CC2=CC(CC(C)=C[C@H]3OC(=O)C(=C)C13)OC2=O (stereo not given in full)
4. Nc1ccn(C2CC3OCC3O2)c(=O)n1 (stereo not given)

> 10 µM (inactive)
> 100 µM (inactive)
24.4 µM (inactive)
> 100 µM (inactive)

Please supply GI50 for each of the following items, keeping them in order.
1. COc1cc(NC(C)=O)ccc1C(=O)NN1C(=O)C(Cl)C1c1ccco1 (stereo not given)
2. CC(=O)c1c2c(cc3c1CC1(Cc4cc5c(cc4C1=O)CCC5)C3)CCC2 (stereo not given)
3. CCOC(=O)c1[nH]c2ccccc2c1C(=O)C[C@H](NC(=O)C(F)(F)F)C(=O)OC
4. CCCCNC(=O)OCCN=C1c2ccccc2C(Br)C(Br)c2ccccc21 (stereo not given)

1. > 100 µM (inactive)
2. > 87.1 µM (inactive)
3. > 100 µM (inactive)
4. 15.2 µM (inactive)

* * *

Would you mind telling me the reported GI50 of each entry?
Tested on: CCRF-CEM
Assay: NCI tumour cell line growth inhibition, 48 h
Calls of active or inactive are those of the source. No stated cut-off is given here; in the data, active = GI50 up to about 1.1 µM and inactive = higher. Residues, ends and D or L forms follow the SMILES beside them. *: point of attachment. Boc = CC(C)(C)OC(=O)*

These recorded examples may help you get a feel for the data.
1) COc1ccc(/C=C2\CC3C4CC=C5C[C@@H](O)CC[C@]5(C)C4CC[C@]3(C)C2=O)cc1OC (some centres undefined)    20.7 µM (inactive)
2) O=C(Nc1ccn(C2CC(O)C(COC(c3ccccc3)(c3ccccc3)c3ccccc3)O2)c(=O)n1)c1ccccc1 (centres undefined)    2.79 µM (inactive)
3) CC(NC(=O)C(NC(=O)OC(C)(C)C)C(C)C)C(=O)N1CCCC1C(=O)NCC(=O)NC(C(=O)NCC(=O)O)C(C)C (centres undefined) (Boc-VAPGVG-OH; configuration not given here)    > 100 µM (inactive)
4) CO[C@H]1c2cccc3cccc(c23)[C@@H]1n1[nH]c(=O)n(C(C)(C)C)c1=O    > 100 µM (inactive)
5) c1ccc(-c2c(-c3[nH]c4ccccc4c3-c3ccccc3)[nH]c3ccccc23)cc1    3.4 µM (inactive)

Please supply GI50 for each of the following items, keeping them in order.
1. CCOC(=O)Cc1c(C)c2ccc(OC(C)=O)c(OC(C)=O)c2oc1=O
2. COc1ccc(Nc2nc3ccccc3nc2C(=O)O)cc1
3. [O-][S+]1c2ccc(Cl)cc2CC(SSC2Cc3cc(Cl)ccc3[S+]([O-])c3ccccc32)c2ccccc21 (centres undefined)

1. 4.09 µM (inactive)
2. 44 µM (inactive)
3. > 100 µM (inactive)

Would you kindly share the measured GI50 for C/C(=N\NC(=O)c1ccncc1)c1sc(-n2nc(-c3ccccc3)cc2-c2ccccc2)nc1C ? > 31.6 µM (inactive)

* * *

System: SK-MEL-5
Experiment: NCI tumour cell line growth inhibition, 48 h
Calls of active or inactive are those of the source. No stated cut-off is given here; in the data, active = GI50 up to about 1.1 µM and inactive = higher.
readout label: GI50

These recorded examples may help you get a feel for the data.
1. COC(=O)C(=CNC(N)=O)C(=O)OC    > 100 µM (inactive)
2. O=[N+]([O-])c1ccc(NS(=O)(=O)C(F)(F)F)cc1    > 100 µM (inactive)

Please supply GI50 for each of the following items, keeping them in order.
1. COc1cc(/C=C\C(=O)O)ccc1OCc1ccccc1
2. C/C(=N/NC(=O)c1ccccc1S(N)(=O)=O)C(CN1CCCCC1)C(C1=C(O)C2C=CC=CC2OC1=O)c1ccccc1 (configuration not stated)
3. CCOP(=O)(/C=C/n1ccc(=O)[nH]c1=O)OCC
4. OCC1=C[C@@](COCc2ccccc2)(OCc2ccccc2)[C@@H](OCc2ccccc2)[C@@H]1OCc1ccccc1
5. COc1cc(/C=C/C(=O)O)ccc1C(=O)OCc1ccccc1
6. CN(C)CN1C(=O)/C(=N\n2c(S)nnc2-c2ccncc2)c2ccccc21
7. O=C(NCc1ccc(Cl)c(Cl)c1)c1nc2ccccc2nc1NCc1ccc(Cl)c(Cl)c1

["> 100 µM (inactive)", "56.9 µM (inactive)", "> 100 µM (inactive)", "15.7 µM (inactive)", "> 100 µM (inactive)", "39.4 µM (inactive)", "> 100 µM (inactive)"]

* * *

Test system: KM12
Test: NCI tumour cell line growth inhibition, 48 h
Activity calls are given as the source filed them. No stated cut-off is given here; in the data, active = GI50 up to about 1.1 µM and inactive = higher.
Give your call using only these classes: active, inactive

Here's what some known entries look like.
1. CCOC(=O)C(NC(=O)c1cccc(Cl)c1)(Nc1ccc(S(=O)(=O)Nc2cc(C)on2)cc1)C(F)(F)F (stereo not given)    inactive
2. COC(=O)C(Cc1ccccc1)NC(=O)C(CNC(=O)OCc1ccccc1)C(=O)OCc1ccccc1 (stereo not given)    inactive
3. CC(=O)c1cc2sc3ccccc3c2[nH]1    inactive

What was the test verdict on COc1cc(C2C(C(=O)Nc3ccccc3C)=C(C)NC(C)=C2C(=O)Nc2ccccc2C)ccc1O ? inactive

What was the test verdict on COc1nc(C(=O)NNC(=O)c2nc(OC)c3ccccc3c2-c2ccccc2)c(-c2ccccc2)c2ccccc12 ? inactive

What was the test verdict on S=c1c2nc[nH]c2ncn1CCSC1=NC=NC2=NC=NC21 (stereo not given) ? inactive

What was the test verdict on CC1=NN(C(=O)c2ccccc2O)C(=O)/C1=C/c1ccc(O)cc1 ? active

What was the test verdict on C=C(C)C(=O)O[C@H]1CC2=CC(CC(C)=C[C@H]3OC(=O)C(=C)C13)OC2=O (stereo not given in full) ? inactive

What was the test verdict on COc1ccc(-c2cc(O)c3cc4c(cc3n2)OCO4)c(OC)c1 ? inactive

What was the test verdict on NC(CCCCNCc1ccccc1)C(=O)O (stereo not given) ? inactive

* * *

System: HOP-18
Test: NCI tumour cell line growth inhibition, 48 h
The source made the active and inactive calls. Rule as the data show it: active = GI50 up to about 1.1 µM and inactive = higher.
readout label: GI50

These recorded examples may help you get a feel for the data.
1. N#CC1=C(Cl)NC(Cl)=C(C#N)C1c1ccc(Cl)cc1    17.6 µM (inactive)
2. COc1cc(C2C(C(=O)Nc3ccccc3C)=C(C)NC(C)=C2C(=O)Nc2ccccc2C)ccc1O    > 100 µM (inactive)

Please supply GI50 for each of the following items, keeping them in order.
1. NC(CCCCNCc1ccccc1)C(=O)O (centres undefined)
2. Cn1nc(-c2ccccc2)c(C(=O)/C=C/c2ccc(Cl)cc2)c(N2CCCCC2)c1=O

1: > 100 µM (inactive); 2: 2.16 µM (inactive)

* * *

Tested on: UACC-62
Assay: NCI tumour cell line growth inhibition, 48 h
Activity calls are given as the source filed them. Cut-off read from the data, not from the text of the source: active = GI50 up to about 1.1 µM and inactive = higher.
Give your call using only these classes: active, inactive

1. COc1cc(CC2CC(c3ccc4c(c3)OCO4)OC2=O)cc(OC)c1OC (configuration not stated)    inactive
2. N#C[C@H]1Nc2ccccc2[C@@H](O)C1O (some centres not stated)    inactive

What was the test verdict on O=C(OCC(Cl)(Cl)Cl)O[C@@H]1CCCC1(c1ccccc1)c1ccccc1 ? inactive

What was the test verdict on COc1cc(/C=C\C(=O)O)ccc1OCc1ccccc1 ? inactive

What was the test verdict on COC1=CC(=O)O/C1=C(\OC)C1OC1c1ccccc1 (configuration not stated) ? inactive

* * *

System: SF-539
Test: NCI tumour cell line growth inhibition, 48 h
Activity calls are given as the source filed them. Rule as the data show it: active = GI50 up to about 1.1 µM and inactive = higher.
Give your call using only these classes: 1 (active), -1 (inactive)

1. CC(C)C(=O)Nc1cc(C(F)(F)F)ccc1[N+](=O)[O-]    -1
2. CC1=C(CC2C(=O)N(c3ccccc3)S(=O)(=O)NC2C)C(=O)N(c2ccccc2)S(=O)(=O)N1C (stereo unspecified)    -1
3. COc1ccc2c(-c3ccc(O)cc3)c(Oc3ccc(Cl)cc3)c(=O)oc2c1    -1
4. Nc1c(OCC(=O)O)ccc2cc(S(=O)(=O)O)ccc12    -1
5. COc1ccc(Br)c(CN2CCc3ccccc32)c1OS(=O)(=O)c1ccc(C)cc1    -1

What was the test verdict on CCN(CC)CCO/N=C1\CC[C@H]2[C@@H]3CCc4cc(OC)ccc4[C@H]3CC[C@]12C ? -1

What was the test verdict on CN(C)CCCOC(=O)C(c1ccccc1)C1(O)CCSCC1 (stereo unspecified) ? -1

What was the test verdict on O=C1C(Nc2ccccc2)=CC2=NCCc3n[nH]c1c32 ? -1
